tested on: K-562 leukemia; assay: NCI-60 one-dose screen, 48 h; settings: 10 µM unless noted
This is part of a sample that, as a whole, favours compounds with a hit. Of some 83,000 tested, about 20% had one in any assay. Calls of active or inactive are those of the source. How the source made its calls: active means growth percent below 10; inactive means the rest.
Labels: active, inactive

[[record]]
compound = "O=C(NNc1nc2cc(F)ccc2n2c(CN3CCOCC3)ccc12)c1ccccc1"
target_entity = "K-562 leukemia"
group = "active"

[[record]]
compound = "COc1ccc(C2CC(n3ccnc3)c3cc(OC)c(OC)c(OC)c32)cc1O (stereo not given)"
target_entity = "K-562 leukemia"
group = "inactive"

[[record]]
compound = "Cn1c(C#N)ccc1-c1ccc(F)c(NC(=O)c2ccc(F)cc2)c1"
target_entity = "K-562 leukemia"
group = "inactive"

[[record]]
compound = "CS(=O)/C(C#N)=C\\C=C\\c1cccc(Cl)c1 (stereo not given)"
target_entity = "K-562 leukemia"
group = "inactive"

[[record]]
compound = "O=C(NCc1ccc(Cn2c(=O)sn(-c3ccccc3)c2=O)cc1)OCc1ccc2cccc(O)c2n1"
target_entity = "K-562 leukemia"
group = "active"

[[record]]
compound = "O=C1Nc2ccccc2/C1=N/N1C(=O)CN(CCCl)C1=O"
target_entity = "K-562 leukemia"
group = "inactive"

[[record]]
compound = "COc1cc(-c2ccc(-c3ccc(C(=N)N)cc3)s2)cc(OC)c1OC"
target_entity = "K-562 leukemia"
group = "active"

[[record]]
compound = "Cn1cc(-c2csc(-c3cn(CCCN4CCOCC4)c4ccc(F)cc34)n2)c2cccnc21"
target_entity = "K-562 leukemia"
group = "active"

[[record]]
compound = "Nc1cc(Br)cc2c1[nH]c(=O)c1ccccc12"
target_entity = "K-562 leukemia"
group = "inactive"

[[record]]
compound = "C/C(=N\\Nc1ccccc1)c1ccc(NC2=CC(=O)c3ccccc3C2=O)cc1"
target_entity = "K-562 leukemia"
group = "inactive"


====

test system: NCI-H522 lung; test: NCI-60 one-dose screen, 48 h (100 = growth as untreated, 0 = no growth, -100 = all killed); details: 10 µM unless noted
The panel holds about 83,000 compounds, 20% with a hit somewhere; the sample as a whole holds those more often.
Measurement Name: growth (%)

[[record]]
compound = "Clc1ccc(Nc2nnc(CNc3ccccc3)c3ccccc23)cc1"
measured_result = -5.92

[[record]]
compound = "O=S(=O)(N=C1C(Cl)=C(Cl)C(=NS(=O)(=O)c2ccccc2)C(Cl)=C1Cl)c1ccccc1"
measured_result = 39.3

[[record]]
compound = "C/C(=C(\\c1ccc(OCCN2CCCCCC2)cc1)c1ccc(OC(=O)c2ccccc2)cc1)c1ccc(Cl)cc1"
measured_result = 51

[[record]]
compound = "CCN(CC)CCOc1ccc(Nc2ncc3cc(-c4c(Cl)cccc4Cl)c(=O)n(CCOC)c3n2)cc1"
measured_result = -28.5

[[record]]
compound = "COc1ccc(Nc2ncc(C#N)c(NCCCNC(=O)C3CCC3)n2)cc1"
measured_result = 85.1

[[record]]
compound = "COC(=O)[C@@]12CC=C(C)[C@]3(C[C@H](c4ccoc4)OC3=O)[C@H]1C=C[C@@H](O)[C@@]2(O)C(=O)OC"
measured_result = 66.3

[[record]]
compound = "COc1cc2c(cc1-c1c(C)noc1C)ncc1nc(CN3CCOCC3)n([C@H](C)COC(F)F)c12"
measured_result = -0.0255

[[record]]
compound = "O=c1oc2c(cc1-c1ccccc1)c[n+]([O-])c1ccccc21"
measured_result = 98.9

[[record]]
compound = "O=C(NN1C(=O)CSC1c1cccc([N+](=O)[O-])c1)c1ccc(NC(=O)c2ccccn2)cc1 (centres undefined)"
measured_result = 95.3

[[record]]
compound = "C#CCOc1ccc2nc(CCl)c(Cl)c(Nc3cccc(C(F)(F)F)c3)c2c1"
measured_result = 36.4

[[record]]
compound = "Cc1[nH]n(-c2cccc(Cl)c2)c(=O)c1/C=C1\\C=c2ccccc2=CC1=O"
measured_result = -11.3

[[record]]
compound = "O=C(O)c1cn(C2CC2)c2cc(N3CCN(C(=O)N/N=C/c4cccc5ccccc45)CC3)c(F)cc2c1=O"
measured_result = 81

[[record]]
compound = "CCOC(=O)c1nnn(Cc2cc(=O)oc3ccc(O)cc23)c1C"
measured_result = 97.1

[[record]]
compound = "Cc1ccc(S(=O)(=O)OC[C@]23CCC(C)(C)C[C@H]2C2=CC[C@@H]4[C@@]5(C)CCCNC(C)(C)[C@@H]5CC[C@@]4(C)[C@]2(C)CC3)cc1"
measured_result = 62

[[record]]
compound = "COc1ccc(C/C(C)=C(\\c2ccc(O)cc2)c2ccc(OCCN3CCCCC3)cc2)cc1"
measured_result = 87.7

[[record]]
compound = "O=C1C=CC2(O)OC/C(=C\\c3ccccc3)C(O)=C2C1=O (centres undefined)"
measured_result = -73.1

[[record]]
compound = "O=C1/C(=C/c2c[nH]c(=O)[nH]c2=O)SC(=S)N1Cc1ccccc1"
measured_result = 90.7

[[record]]
compound = "COc1cc2ncnc(Nc3ccc(S(=O)(=O)Nc4nccs4)cc3)c2cc1OCCCN1CCCC1"
measured_result = 94.1

[[record]]
compound = "CC(C)(C)CC(C)(C)Nc1c(-c2c(O)c3ccccc3oc2=O)nc2sc3ccccc3n12"
measured_result = 32.8


====

test system: COLO 205 colon; assay: NCI-60 one-dose screen, 48 h (100 = growth as untreated, 0 = no growth, -100 = all killed); settings: 10 µM unless noted
Compounds without any hit were thinned out: in the full panel of roughly 83,000, 20% have a hit. Active and inactive are the calls of the source. Rule for the calls: active = growth percent below 10; inactive = the rest.
Measurement Name: growth

[[record]]
compound = "COC1C(O)CC(OC2CC(OC3CC(O[C@@H]4C(=O)c5c(cc6cc(OC7CC(OC8CC(O)C(O)C(C)O8)C(O)C(C)O7)c(C)c(O)c6c5O)CC4[C@H](OC)[C@@H](O)C(C)=O)OC(C)C3O)OC(C)C2O)OC1C (stereo partly drawn)"
measured_result = "-21.3% (active)"

[[record]]
compound = "Nc1ncnc2c1N=C(c1ccc(Cl)cc1)CC(c1cccc(Nc3ccnc4cc(Cl)ccc34)c1)N2 (stereo not drawn)"
measured_result = "66.2% (inactive)"

[[record]]
compound = "C(=C(\\C1=NCCN1)n1ccc2ccccc21)/c1ccccc1"
measured_result = "107% (inactive)"

[[record]]
compound = "Cn1c(C#N)ccc1-c1ccc(F)c(NC(=O)c2ccc(F)cc2)c1"
measured_result = "90.9% (inactive)"

[[record]]
compound = "COc1ccc(-c2cc(C(=O)N3N=C(c4ccc(N)cc4)CC3c3ccc(Cl)cc3)c3cc(OC)ccc3n2)cc1 (stereo not drawn)"
measured_result = "96.3% (inactive)"

[[record]]
compound = "COC(=O)Cn1c2c(c3c(OC)cccc31)C(=O)c1ccccc1-2"
measured_result = "104% (inactive)"

[[record]]
compound = "CCn1cc(C(=O)N/N=C/c2cccc(F)c2)c(=O)c2cc(F)c(N3CCNC(C)C3)c(F)c21 (stereo not drawn)"
measured_result = "17.5% (inactive)"

[[record]]
compound = "O=C(OCc1ccc2c(Cl)cc(Cl)c(O)c2n1)N1CCN(C(=O)c2cc3ccccc3[nH]2)CC1"
measured_result = "39% (inactive)"


====

system: HS 578T breast; test: NCI-60 one-dose screen, 48 h (100 = growth as untreated, 0 = no growth, -100 = all killed); conditions: 10 µM unless noted
About 83,000 compounds went through this panel and 20% of them were active in at least one assay; those are over-represented in the sample as a whole.
Measurement Name: growth (%)

[[record]]
molecule = "CN(C)/C(N)=N/N=C(\\c1ccccc1)c1ccccn1"
unit_symbol = "%"
measured_result = 97.8

[[record]]
molecule = "N=C(N)c1ccc(-c2ccc(-c3ccccc3)o2)o1"
unit_symbol = "%"
measured_result = 45.6

[[record]]
molecule = "Cc1ccc(S(=O)(=O)OC[C@]23CCC(C)(C)C[C@H]2C2=CC[C@@H]4[C@@]5(C)CCCNC(C)(C)[C@@H]5CC[C@@]4(C)[C@]2(C)CC3)cc1"
unit_symbol = "%"
measured_result = 85.3

[[record]]
molecule = "Cc1cc2oc(/C=C/c3ccccc3)cc(=O)c2c(C)c1Cl"
unit_symbol = "%"
measured_result = 119

[[record]]
molecule = "Clc1ccc(-c2cc(-c3ccccc3)nc(N3CCN(CCCNc4ccnc5cc(Cl)ccc45)CC3)n2)cc1"
unit_symbol = "%"
measured_result = -17.9

[[record]]
molecule = "Cc1ccc2c(c1)sc1nc(-c3c[nH]c4ccccc34)c(Nc3ccccc3)n12"
unit_symbol = "%"
measured_result = 98.7

[[record]]
molecule = "O=C1NC(=O)C(c2coc3cc(Br)ccc23)=C1c1c[nH]c2ccccc12"
unit_symbol = "%"
measured_result = 43.3

[[record]]
molecule = "COC1C(O)CC(OC2CC(OC3CC(O[C@@H]4C(=O)c5c(cc6cc(OC7CC(OC8CC(O)C(O)C(C)O8)C(O)C(C)O7)c(C)c(O)c6c5O)CC4[C@H](OC)C(=O)C(C)=O)OC(C)C3O)OC(C)C2O)OC1C (stereo partly drawn)"
unit_symbol = "%"
measured_result = 10.8


Numbers sourced from PubChem BioAssay (NCI).
